meta.source: a protein production outcome set (Wang et al. 2014)

assay-notes: label from the status in PepcDB records;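 further: failed if final PepcDB status was selected cloned or expressed and not failed if soluble or beyond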
observable: protein production

MDEQSVESIAEVFRCFICMEKLRDARLCPHCSKLCCFSCIRRWLTEQRAQCPHCRAPLQLRELVNCRWAEEVTQQLDTLQLCSLTKHEENEKDKCENHHEKLSVFCWTCKKCICHQCALWGGMHGGHTFKPL ... failed
MRGWILYKETATQLKPEWYEIERLLAAAKADNIELEVYAPDEFDLTVTREDNKSILLNGQPVELPDFIIPRMGSGTTYFALAIIRHLERLGVYCLNPSKAIEIVKDKLFSQQLLAEKNLPTPKTMLVKFPVDIDLVERHLGFPVVIKTLSGSQGSGVFLSHKAREFDDLMQLIEATNKNANIILQEFIANSHGRDLRVFTIGGRVAGCYERRGQEDSFKANVSAGGSARPFDITPEIEWLATQTANILDLDVAGIDLLFDNGHYKICEANSSPGFEGLESCLNVDIAAQILHFIRIRLGMFNKDEKNSDPQLTHAGPALANNVTSSKAAE ... failed

====

assay-notes: label from the status in PepcDB records
observable: protein production

MEEKKDFYDTDELRDFMALVEKTNDIKKIALFRILAFTGIRKGELLALEWKDYRKSTLDINKAISHSPVGYEILPPKANSNRLLSLDEKTCKILDELHQTYPESTRIFESENGGMLSPSKPRKWLLEITKEKEIEPIRIHAFRHTHASLLFESGMSLKQVQYRLGHADLKTTMNIYTHITKLEHHHHHH ... not failed
MFQTGGLIVFYGLLAQTMAQFGGLPVPLDQTLPLNVNPALPLSPTGLAGSLTNALSNGLLSGGLLGILENLPLLDILKPGGGTSGGLLGGLLGKVTSVIPGLNNIIDIKVTDPQLLELGLVQSPDGHRLYVTIPLGIKLQVNTPLVGASLLRLAVKLDITAEILAVRDKQERIHLVLGDCTHSPGSLQISLLDGLGPLPIQGLLDSLTGILNKVLPELVQGNVCPLVNEVLRGLDITLVHDIVNMLIHGLQFVIKV ... failed
SLGAMFRAGTPMPPNLNSQGGGHYFIDRDGKAFRHILNFLRLGRLDLPRGYGETALLRAEADFYQIRPLLDALRELEASQGTPAPTAALLHADVDVSPRLVHFSARRGPHHYELSSVQVDTFRANLFCTDSECLGALRARFGVASGDRAEGSPHFHLEWAPRPVELPEVEYGRLGLQPLWTGGPGERREVVGTPSFLEEVLRVALEHGFRLDSVFPDPEDLLNSRSLRFVRH ... not failed
MAIQKGDFIKLNYTGRFEDGRIFDTTDEELAKKEEIFNPRGLYGGDVVIVGAGHTIEGLDEDLEGKEAGYSSTVTIPPEKAFGLSNSKLVETVSITKFQDRNVHPGLPVELEGKRGVVSRVIGRKVTVDFNSPLAGKTVSYEYTIEKLLEDDVEMIQGLLALYTGMRDMEVEITDGVAKIYVPTGLTFNQRWLMAKNRVVSELFKYAGLKEVQLIEKLTAEAEAPVPAEPEVEAEAEAEAEVEAEVKEETSESHE ... failed
MSDWADLMNDLNKLQHSDAVTTAWQFTEQVPHGRDLGMQVVSVDQGQVCMRLTPQSWMFAHKDTKEICTSVLYSLADSAGGLAVFAGALELMPIATLDLRMDYLRPAIGDRALSAVATCRHLSDDVAFIHCDILSEGNRELLATANATFMRNTQGQQLHAGGPGKESA ... failed

## Task Reported protein production for MILAILQARMSSTRLPGKVLMPLQRQPMIVRQIERVARSKRIDKLVVATSDRPEDDAIEAAVRREGIAVFRGSLDNVQQRFIGALDAHPADHVVRLTADCPLADPTLIDATIDLCLSKGADYVSNTPEGHAHPKGTDVEVMTAAALRRAAAEATTKEAFEHVTWDLWNQPQRWTCAWLPCFPDQGAVRWTVDRPDDYAFVAAVYDALYPANRAFTSDDIRAFVAGRPDLQDYGGDRRALEHHHHHH : what is it?
## Result failed

## Task Reported protein production for MLRSVYEMTKISKIIDELNNQQADAAWITTPLNVYYFTGYRSEPHERLFALLIKKDGKQVLFCPKMEVEEVKASPFTGEIVGYLDTENPFSLYPQTINKLLIESEHLTVARQKQLISGFNVNSFGDVDLTIKQLR : what is it?
## Result not failed

## Task Reported protein production for MTTTPDWIMIGGDGPESYNQQSSYQRALLEATKDKMTKAISANLDLDLISNRFIVADFGCASGPNTFVAVQNIIDAVEEKYRRETGQNPADNIEFQVLFNDFSLNDFNTLFQTLPPGRRYFSAGVPGSFFERVLPKESFHIGVMSYAFHFTSKIPKGIMDRDSPLWNKDMQCTGFNPAVKKAYLDQYSIDTKILLDARAEELVPGGLMLLLGSCLRDGVKMSETPKGTVMDFIGESLSDLAKQGVTEQEKVDTFRTSIYFAEQGEIRQIIEENGKFTIEAFEDIIHAKNEFPFDPKTLAISFKAFYGAFISAHFGVEVMRKAFELVEVKAREQISRLHNSKPGMQYLIVLRKN : what is it?
## Result failed

## Task Reported protein production for MIRRALLIASLAALAGCAGLDAIQNAYQGIQDYFTGKDNAEPPAPLAEITPQVKADKLWMAEIGDGYDDQGINLGPAVDDSRVFAAERHGTVQAFNRLTGEKLWSVDHEMDLSAGPVFDDGELFLATAEGAVIVLNAADGALVWKSTLASEILSVPAVADDVVVVRGTNGHLTGLDRKSGATLWYFERHAPPLAIRSRGAPIIAGDLVIDGFGGGKVSAIQLKEGRLDWEANVSLPHGRSEIERLVDLSATPVVRNDVVFVSGYQGGTASLGLNTGEVQWKRESISSPAGMTADRRELYVTDANADLWQLAIRNGEDQWKQTELHQRRLTAPALVKDYLVVGDFEGYLHVLNKEDGRIVGRVQVTDAPIEYPPVVYGDIVYVYATDGTLAAITVD : what is it?
## Result failed

## Task Reported protein production for MGWEFFSLETLQELARQYGYGAVFFGIALENAGIPIPGETITLLGGFLAGSGDLSYGGVLIAAIAGAVLGDSCGYWVGRWGGWPLLTRAAQLFNIPQEKLDQARHKFSQNGAAAVFFGRFVTLLRIFAGPMAGIVRMPYGKFLLYNIGGASVWAAITVSLAYFLGRVVTIEQIIAWTTQFSWFALAAVVGMVGIYFVFHFLQKRFDQTIESTIGDRPQ : what is it?
## Result failed

## Task Reported protein production for METPYTDHLSPEDFEHVYEPAEDSFLLLDALEKDLEYLDRLQPSLCVELGSGSGVIITALAKKLAGFSLCLATDINPKACNATRRTATRNGARLDSIRCSLADALRPRSVDVLLFNPPYVVTSDEELQTQQFDSHSESSTDRNLVFSWAGGQDGRRVTDILLKQLDDILSPRGVLYLLLLRENKPEEIIKYLEGLQFRAVKFMERRIPGEHLCILKVTRYLASS : what is it?
## Result failed

## Task Reported protein production for MPLVLDLARPVSEEELRRLSELNPGYQWERSPEGRLWVSPTGGESGRRSLQLAYQLARWNEERGLGVVFDSSTGFKFPDGSILSPDAAFVERGAWEALSEAEREGFPPLAPKAVFEVRSASQDPEELRAKMGIYLRNGVLLGVLVDPYARAVEVFRPGKPPLRLEGVERVSLDPELPGFALSLPPLW : what is it?
## Result not failed
